B1: ZNF263 (parent)
chain: KPYKCTLCGENFSHRSNLIRHQRI

Variants of: B1
test_details: protein stability index of a GFP-peptide fusion (GPS, HEK-293T) (PSI 1-6); higher = more stable;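 further: lentivirally expressed fusions sorted by FACS into six bins by GFP to DsRed ratio, PSI derived from sequencing read proportions per bin multiplied by bin number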
condition: c terminus: a fixed tail appended
assay_endpoint: protein stability index
# output: bare number, no unit

Please review the following examples before continuing.
> print(dat)
   mutant.name  value.measured
1         S16Q            2.81
2          T6E             2.9
3         H14P            1.85
4          K4C             1.7
5         S16V            1.87

## Input Item `I24N` : provide protein stability index
## Output 3.11

## Input Item `N11M` : provide protein stability index
## Output 3.49

## Input Item `E10S` : provide protein stability index
## Output 2.61

## Input Item `S13I` : provide protein stability index
## Output 2.67
